system: Vero; experiment: Minimum cytotoxic concentration (MCC) required to cause a microscopically detectable alteration of host cell morphology, when incubated with Vero B cells; assay type: functional; settings: Chlorocebus sabaeus
Measured MCC accompanies every entry in the list below.

>>> result("NC(=O)c1ncn([C@@H]2O[C@H](CO)[C@@H](O)[C@H]2O)n1 [RIBAVIRIN]")
"> 400 µg/mL"
>>> result("Cc1cn([C@H]2O[C@H](CO)[C@H](O)[C@@H]2O)c(=O)[nH]c1=O")
"> 400 µg/mL"
>>> result("Nc1ccn([C@@H]2O[C@H](CO)[C@H](O)[C@@H]2O)c(=O)n1")
"> 200 µg/mL"

Ask: Can you share its MCC? I mean this compound: `Nc1ccn([C@H]2O[C@H](CO)[C@H](O)[C@@H]2O)c(=O)n1`
Reply: > 400 µg/mL

Ask: Can you share its MCC? I mean this compound: `O=c1ccn([C@H]2O[C@H](CO)[C@H](O)[C@@H]2O)c(=O)[nH]1`
Reply: > 400 µg/mL

Ask: Can you share its MCC? I mean this compound: Nc1ncnc2c1ncn2[C@@H]1O[C@H](CO)[C@H](O)[C@@H]1O (stereo in doubt; 8)
Reply: > 400 µg/mL

Ask: Can you share its MCC? I mean this compound: `O=c1ccn([C@@H]2O[C@H](CO)[C@H](O)[C@@H]2O)c(=O)[nH]1`
Reply: > 400 µg/mL

Ask: Can you share its MCC? I mean this compound: `Cc1cn([C@@H]2O[C@H](CO)[C@H](O)[C@@H]2O)c(=O)[nH]c1=O`
Reply: > 400 µg/mL

Ask: Can you share its MCC? I mean this compound: Nc1ncnc2c1ccn2[C@@H]1O[C@H](CO)[C@@H](O)[C@H]1O [TUBERCIDIN]
Reply: > 0.4 µg/mL
